- assayMethodText: IN Cell qHTS Assay for Inhibitors of the mTORC1 Signaling Pathway in MEF (Tsc2-/-, p53-/-) Cells: Sytravon; further: nearly all actives have a fitted effect of over 60% in size
- appliedConditions: phospho-rpS6 immunofluorescence, 24 h; series mostly up to 38.3 µM
In all, about 2,100 compounds went through this assay and about 210 (10%) were called active. About 53% were inconclusive and are not listed. The call rests on the fitted dose curve; in most records, active means well fitted inhibition curve with a large enough effect; inconclusive means small, poorly fitted or top-dose-only effect, or effect the other way; inactive means no such curve, though single readings can be large or run the other way. This is one part of the list.
Outcome codes: active, inactive

>>> assignedclass("Cc1cccc(CN2C(=O)c3ccccc3Sc3ccc(C(=O)NC4CCCCC4)cc32)c1")
"inactive"
>>> assignedclass("Cc1cccc(N2CCN(c3ncnc4c3nc3n4CCCCC3)CC2C)c1 (stereo not given)")
"active"
>>> assignedclass("CC1CCCN(CCCNC(=O)c2ccc3c(c2)N(Cc2cccc(Cl)c2)C(=O)c2ccccc2S3(=O)=O)C1 (stereo not given)")
"inactive"
>>> assignedclass("O=C(Nc1cc(Cl)cc(Cl)c1)c1ccc(F)c(S(=O)(=O)N2CCCCCC2)c1")
"inactive"
>>> assignedclass("COc1ccc(Cn2c(C(=O)O)c(CNCCc3cccs3)c3ccc(OC)cc32)cc1")
"inactive"
>>> assignedclass("COc1ccc(-n2ncc(C(=O)N3CCN(C4CCCCC4)CC3)c2C2CCN(C(=O)OC(C)(C)C)CC2)cc1")
"inactive"
>>> assignedclass("CCSc1ccccc1C(=O)Nc1ccc(-c2nc3ccccc3s2)c(O)c1")
"active"
>>> assignedclass("CCCCNC(=O)c1cc(-c2cccnc2)nc2ccc(S(=O)(=O)NCCCC)cc12")
"inactive"
>>> assignedclass("COc1ccc(Cn2c(C(=O)O)c(CNC3CCCCCC3)c3ccc(OC)cc32)cc1")
"inactive"
>>> assignedclass("Cc1cccc(C2C=C(c3ccc(C)c(C)c3)Nc3nnnn32)c1 (stereo not given)")
"inactive"
>>> assignedclass("Cc1ccc(Cl)cc1N1CCN(C(=O)c2ccc3c(c2)N(Cc2ccc(F)cc2)CCS3)CC1")
"inactive"
>>> assignedclass("CC(C)c1cnc2c(c1SCC(=O)c1ccc(Cl)cc1)c(=O)n(C)c(=O)n2C")
"inactive"
>>> assignedclass("CCC1CN(C(=O)N2CCC(C(=O)NCCN(CC)CC)CC2)c2ccccc2O1 (stereo not given)")
"inactive"
>>> assignedclass("CCc1ccc(CNC(=O)COc2cc(=O)n(CC)c3ccccc23)cc1")
"inactive"
>>> assignedclass("CCOCCc1nn2c(=O)cc(COC(=O)c3ccc(NC(=O)c4cccs4)cc3)nc2s1")
"inactive"
>>> assignedclass("CCCCN(CC)CCCNC(=O)c1ccc2c(c1)N(Cc1ccc(C)cc1)C(=O)c1ccccc1S2")
"inactive"
>>> assignedclass("CN(C)CCNC(=O)c1ccc(-n2c(-c3ccccc3)cc3c2CCCCC3)cc1")
"inactive"
>>> assignedclass("CC(=O)c1ccc(N2CCN(c3ncnc4c3c(-c3ccccc3)cn4-c3cccc(C)c3)CC2)cc1")
"inactive"
>>> assignedclass("CCN(CC)CCCNc1cc(-c2ccccc2)nc(C)n1")
"inactive"
>>> assignedclass("Cc1ccccc1NC(=O)CSc1nc2ccc(NC(=O)c3ccccc3)cc2s1")
"inactive"

* * *

- assayMethodText: IN Cell qHTS Assay for Inhibitors of the mTORC1 Signaling Pathway in MEF (Tsc2-/-, p53-/-) Cells: Sytravon; further: nearly all actives have a fitted effect of over 60% in size
- appliedConditions: phospho-rpS6 immunofluorescence, 24 h; series mostly up to 38.3 µM
Among all 2,100 compounds or so, about 210 (10%) were called active. Another 53% or so got no clear call; they are omitted. Calls come from the whole dose curve; as a rule, active = well fitted inhibition curve with a large enough effect; inconclusive = small, poorly fitted or top-dose-only effect, or effect the other way; inactive = no such curve, though single readings can be large or run the other way. Some of the results follow.
Classes used: active, inactive

>>> assignedclass("COc1ccccc1CN1CCC(CNC(=O)c2cnn(-c3ccccc3Cl)c2C2CCN(C(=O)OC(C)(C)C)CC2)CC1")
"inactive"
>>> assignedclass("Cc1ccccc1C1CC(=O)Nc2ccc3ccccc3c21 (stereo not given)")
"inactive"
>>> assignedclass("Cc1ccc(C(=O)n2nc(C)c(S(=O)(=O)N3CCCCCC3)c2C)cc1")
"inactive"
>>> assignedclass("CCS(=O)(=O)c1ncc(Cl)c(C(=O)Nc2c(C(=O)Nc3cccc(C)c3)oc3ccccc23)n1")
"inactive"
>>> assignedclass("CCS(=O)(=O)c1ncc(Cl)c(C(=O)N(Cc2ccccc2)c2ccc(OC)cc2)n1")
"active"
>>> assignedclass("COc1cc(NS(=O)(=O)c2cc(Br)cc3c2N(C(=O)C2CC2)CC3)cc(OC)c1")
"inactive"
>>> assignedclass("CC(=O)Nc1c(C(=O)Nc2ccccc2F)oc2ccccc12")
"inactive"
>>> assignedclass("COc1ccc(OC)c(NC2=C(c3ccccc3)C(=O)c3ccccc32)c1")
"inactive"
>>> assignedclass("CCCN(CCC)CCCNC(=O)c1cc2c(-c3ccc(Cl)cc3)nn(C)c2s1")
"active"
>>> assignedclass("CCSc1oc(-c2ccc(F)cc2)nc1S(=O)(=O)c1ccc(C)cc1")
"inactive"
>>> assignedclass("COc1ccc(N2CCN(C(CNC(=O)C(=O)NCc3ccc(F)cc3)c3cccnc3)CC2)cc1 (stereo not given)")
"inactive"
>>> assignedclass("COC(=O)c1cc(C)nc2c1c(=O)nc(SCc1ccccc1Cl)n2C1CC1")
"inactive"
>>> assignedclass("CCCC(=O)Nc1cccc(-c2cn3c(C)csc3n2)c1")
"inactive"
>>> assignedclass("CCOc1ccc(N(C(=O)Cn2nnc3ccccc32)C(C(=O)NCc2ccccc2)c2ccc(OC)cc2)cc1 (stereo not given)")
"inactive"
>>> assignedclass("Cc1ccc(CNS(=O)(=O)c2cc(C(=O)Nc3cccc(C(F)(F)F)c3)ccc2F)cc1")
"inactive"
>>> assignedclass("CCSc1ncc(Cl)c(C(=O)Nc2ccc(S(=O)(=O)N3CCCCC3CC)cc2)n1 (stereo not given)")
"inactive"
>>> assignedclass("COc1ccc(CCNC(=O)c2nn(C)c3c2CSc2ccccc2-3)cc1OC")
"inactive"
>>> assignedclass("CCCc1cc(N2CCN(c3ccccc3)CC2)n2cnnc2n1")
"inactive"
>>> assignedclass("COC(=O)c1c(-c2ccc(Cl)cc2)noc1N1CCN(c2cccc(C(F)(F)F)c2)CC1")
"inactive"
>>> assignedclass("CCN(C(=O)c1cc2c(=O)oc3ccc(C)cc3c2s1)c1ccccc1F")
"inactive"
>>> assignedclass("Cn1c(=O)c2c(-c3ccc(Br)cc3)n(Cc3ccc(F)cc3)cc2n(C)c1=O")
"inactive"
>>> assignedclass("CCCN(CCC)CCCNC(=O)c1cc2c(-c3ccc(OC)c(OC)c3)nn(C)c2s1")
"active"
>>> assignedclass("CCN1CCc2c(sc(NC(=O)CSc3ccccc3)c2-c2nc3ccccc3s2)C1")
"inactive"
>>> assignedclass("Cc1ccccc1Cn1cc(NC(=O)c2cc(-c3ccc(Cl)cc3)on2)cn1")
"inactive"
>>> assignedclass("CCS(=O)(=O)c1ncc(Cl)c(C(=O)Nc2ccccc2)n1")
"active"
>>> assignedclass("CCS(=O)(=O)c1ncc(Cl)c(C(=O)Nc2ccc(S(=O)(=O)N(C)c3ccccc3)cc2)n1")
"active"
>>> assignedclass("CCCS(=O)(=O)c1ncc(Cl)c(C(=O)Nc2c(C(=O)Nc3ccccc3)oc3ccccc23)n1")
"active"
>>> assignedclass("CC(C)c1ccc(S(=O)(=O)Nc2ccc3oc4c(c3c2)C(=O)CC(C)(C)C4)cc1")
"inactive"
>>> assignedclass("CCN1CCc2c(sc(NC(=O)c3ccc(S(=O)(=O)N4CCCC(C)C4)cc3)c2C(=O)OC)C1 (stereo not given)")
"inactive"
>>> assignedclass("Cc1ccc(S(=O)(=O)c2nc(-c3cccs3)oc2SCC(=O)Nc2cc(C)cc(C)c2)cc1")
"active"
>>> assignedclass("CC(C)c1ccc(CNCCSc2nnnn2C)cc1")
"inactive"
>>> assignedclass("CCOc1ccc(NC(=O)CSc2oc(-c3ccc(F)cc3)nc2S(=O)(=O)c2ccc(C)cc2)cc1")
"active"
>>> assignedclass("CN(C)C(=O)c1c(NC(=O)c2ccccc2F)sc2c1CCCC2")
"inactive"
>>> assignedclass("CCOc1ccc(-c2oc3ccccc3c(=O)c2O)cc1OCC")
"inactive"
>>> assignedclass("CC(=O)Nc1cccc(NC(=O)C(=O)NCCc2sc(-c3ccccc3)nc2C)c1")
"active"
>>> assignedclass("COc1ccc(-c2nn(C)c3sc(C(=O)Nc4cccc(F)c4)cc23)cc1OC")
"inactive"
>>> assignedclass("CCOC(=O)c1c(NC(=O)c2ccc(S(=O)(=O)N3CCC(C)CC3)cc2)sc2c1CCN(CC)C2")
"inactive"
>>> assignedclass("Cc1nc(-c2ccc(F)cc2)sc1CCNC(=O)C(=O)Nc1ccc2c(c1)OCCO2")
"inactive"
>>> assignedclass("CCCc1cc(=O)oc2cc(C)c3c(-c4ccccc4)c(C)oc3c12")
"inactive"
>>> assignedclass("Cc1ccc(-n2ncc(C(=O)NCc3cccs3)c2C2CCN(C(=O)OC(C)(C)C)CC2)cc1C")
"inactive"

* * *

- assayMethodText: IN Cell qHTS Assay for Inhibitors of the mTORC1 Signaling Pathway in MEF (Tsc2-/-, p53-/-) Cells: Sytravon; further: nearly all actives have a fitted effect of over 60% in size
- appliedConditions: phospho-rpS6 immunofluorescence, 24 h; series mostly up to 38.3 µM
Among all 2,100 compounds or so, about 210 (10%) were called active. Roughly 53% stayed inconclusive and do not appear here. The call rests on the fitted dose curve; in most records, active means well fitted inhibition curve with a large enough effect; inconclusive means small, poorly fitted or top-dose-only effect, or effect the other way; inactive means no such curve, though single readings can be large or run the other way. The list shows a part of the results.
Outcomes: YES (active), NO (inactive)

>>> assignedclass("CC(=O)c1ccc(N2CCN(C(=O)C3CCCN(S(=O)(=O)c4ccc(Br)s4)C3)CC2)cc1 (stereo not given)")
"NO"
>>> assignedclass("CC1CCn2c(nc3cc(C(=O)NCc4ccccc4)ccc32)C1 (stereo not given)")
"NO"
>>> assignedclass("COc1cccc(NC(=O)C2CCC(CNS(=O)(=O)c3csc(C(N)=O)c3)CC2)c1 (stereo not given)")
"NO"
>>> assignedclass("Cc1ccc(CNC(=O)Cn2cc(S(=O)(=O)Cc3ccccc3F)c3ccccc32)cc1")
"YES"
>>> assignedclass("COc1ccc(Cn2c(C(=O)O)c(CNCCc3ccco3)c3ccc(OC)cc32)cc1")
"NO"
>>> assignedclass("Cc1cc(C)c2c(=O)cc(CSCC(=O)Nc3nnc(C)s3)[nH]c2c1")
"NO"
>>> assignedclass("Cc1ccc(NC(=O)c2nc(S(=O)(=O)Cc3cccc(C)c3)ncc2Cl)cc1")
"YES"
>>> assignedclass("COc1ccc(NS(=O)(=O)c2ccc3c(c2)CCCN3C(=O)C2CCC2)cc1OC")
"NO"
>>> assignedclass("CCOC(=O)c1cc(S(=O)(=O)NCc2ccc(OC)cc2)[nH]n1")
"NO"
>>> assignedclass("O=S(=O)(c1ccc(Cl)cc1)c1nc(-c2ccco2)oc1SCc1ccccc1F")
"NO"
>>> assignedclass("CCc1ccc(NC(=O)c2ccc(F)c(S(=O)(=O)NC3CCCCCC3)c2)cc1")
"NO"
>>> assignedclass("COc1ccc(Cn2c(C(=O)O)c(CNCc3ccccc3F)c3ccc(OC)cc32)cc1")
"NO"
>>> assignedclass("CCn1cc2nc(SCC(=O)Nc3cccc(Cl)c3C)n(Cc3ccc(Cl)cc3)c(=O)c2n1")
"NO"
>>> assignedclass("Cc1cc(C)cc(NS(=O)(=O)c2ccc(-c3cc(C)no3)s2)c1")
"NO"
>>> assignedclass("COc1ccc(CNC(=O)C2CCC(CNS(=O)(=O)c3cccs3)CC2)cc1 (stereo not given)")
"NO"
>>> assignedclass("O=C(Cn1cc(S(=O)(=O)Cc2cccc(Cl)c2)c2ccccc21)Nc1ccccc1C(F)(F)F")
"NO"
>>> assignedclass("COc1ccc(C(=O)NC(c2ccccc2Cl)c2cc(Cl)c3cccnc3c2O)cc1 (stereo not given)")
"NO"
>>> assignedclass("Cc1ccc(S(=O)(=O)Nc2cccc(-c3ccc(N4CCC(C)CC4)nn3)c2)s1")
"NO"
>>> assignedclass("Oc1c(C(Nc2ccccn2)c2ccccc2F)ccc2cccnc12 (stereo not given)")
"NO"
>>> assignedclass("Cc1ccc(-c2nc3ncccc3o2)cc1NC(=O)COc1ccc(C(C)C)cc1")
"NO"
>>> assignedclass("CCOC(=O)C(Cc1c[nH]c2ccccc12)NC(=O)COc1ccc(Cl)cc1 (stereo not given)")
"NO"
>>> assignedclass("Cc1cc(C)c(NC(=O)c2sc3nc(C)cc(C)c3c2NC(=O)c2ccccc2)c(C)c1")
"NO"
>>> assignedclass("Cc1cccc(NC(=O)c2ccc(F)c(S(=O)(=O)NCc3ccc4c(c3)OCO4)c2)c1")
"NO"
>>> assignedclass("COc1ccc(-n2c(=O)c3ccc(C(=O)NCc4ccc(C)cc4)cc3n(CC(=O)Nc3ccc(F)cc3)c2=O)cc1")
"YES"
>>> assignedclass("Cc1cc(=O)n(CC(=O)N2CCN(c3ccccc3F)CC2)c2c1c(C)nn2C")
"NO"
>>> assignedclass("CCc1c(C)nc2nncn2c1NCc1ccc(Cl)cc1")
"NO"
>>> assignedclass("Cc1cccc(NC(=O)c2nc(S(C)(=O)=O)ncc2Cl)c1")
"YES"
>>> assignedclass("O=S(=O)(c1ccccc1)n1nc(-c2ccc(Cl)cc2)nc1NCc1ccc(F)cc1")
"NO"
>>> assignedclass("COC(=O)c1c(NC(=O)c2ccc(S(=O)(=O)N3CCC(C)CC3)cc2)sc2c1CCN(C)C2")
"NO"
>>> assignedclass("COc1ccc(C2C(C(=O)Nc3ccccc3)=C(C)Nc3nc(-c4ccc(Cl)cc4)nn32)cc1 (stereo not given)")
"YES"
>>> assignedclass("CCS(=O)(=O)c1ncc(Cl)c(C(=O)NCc2ccc(OC)cc2)n1")
"YES"
>>> assignedclass("Cc1c(C(=O)Nc2cccc(F)c2)oc2c1-c1nn(Cc3c(F)cccc3Cl)cc1CC2")
"NO"
>>> assignedclass("Cc1cc(C)c2c(NC(=O)c3ccccc3Cl)c(C(=O)Nc3ccc(C)c(C)c3)sc2n1")
"YES"
>>> assignedclass("Cc1ccc(Cn2c(=O)n(CCCCC(=O)NCc3ccccc3Cl)c(=O)c3ccccc32)cc1")
"NO"
>>> assignedclass("Cc1ccccc1C(=O)N1CCN(CCc2ccccn2)CC1")
"NO"
>>> assignedclass("COc1ccccc1C1C(C(=O)Nc2ccccc2)=C(C)Nc2nc(-c3ccccc3)nn21 (stereo not given)")
"NO"
>>> assignedclass("CC(=O)N1c2ccc(S(=O)(=O)NCC3CCC(C(=O)Nc4cccc(F)c4)CC3)cc2CC1C (stereo not given)")
"NO"
>>> assignedclass("CCCC(=O)Nc1nnc(SCc2cc(=O)c3ccc(C)cc3[nH]2)s1")
"YES"
>>> assignedclass("Cc1cc(C)c(NC(=O)Cn2cc(S(=O)(=O)Cc3ccccc3F)c3ccccc32)c(C)c1")
"NO"
>>> assignedclass("CCOc1ccc(-c2c(C)nn3c(C)c(C(=O)Nc4cccc(Cl)c4C)cnc23)cc1OCC")
"NO"
